target of assay: SMURF1 (Homo sapiens, UniProt Q9HCE7)
Sequence (Q9HCE7 420-757 limits assumed, species assumed): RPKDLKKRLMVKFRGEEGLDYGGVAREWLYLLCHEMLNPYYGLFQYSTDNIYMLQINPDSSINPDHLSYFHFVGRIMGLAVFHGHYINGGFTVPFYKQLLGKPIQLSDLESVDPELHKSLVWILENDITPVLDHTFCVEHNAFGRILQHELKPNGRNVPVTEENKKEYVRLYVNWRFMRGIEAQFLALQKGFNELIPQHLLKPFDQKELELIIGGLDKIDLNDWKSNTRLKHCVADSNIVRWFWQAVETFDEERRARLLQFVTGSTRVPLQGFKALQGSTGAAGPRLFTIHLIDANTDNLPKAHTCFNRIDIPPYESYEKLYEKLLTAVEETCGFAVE
pIC50: −log10 of the molar value.
measure: pIC50

| item smiles | pIC50 |
| --- | --- |
| Cc1c(C(=O)Nc2ccc(CN)cc2)ncnc1N1CCC(C#N)(c2ccccc2)CC1 | < 4.30 |

Now for a further compound.
Identify measured pIC50 corresponding to `NCc1cccc(CNc2ncnc3c(N4CCN(Cc5ccccc5)CC4)ncnc23)c1` < 4.30

###

target of assay: HECW2 (Homo sapiens)
Sequence (Q9P2P5 1237-1572 limits assumed, species assumed): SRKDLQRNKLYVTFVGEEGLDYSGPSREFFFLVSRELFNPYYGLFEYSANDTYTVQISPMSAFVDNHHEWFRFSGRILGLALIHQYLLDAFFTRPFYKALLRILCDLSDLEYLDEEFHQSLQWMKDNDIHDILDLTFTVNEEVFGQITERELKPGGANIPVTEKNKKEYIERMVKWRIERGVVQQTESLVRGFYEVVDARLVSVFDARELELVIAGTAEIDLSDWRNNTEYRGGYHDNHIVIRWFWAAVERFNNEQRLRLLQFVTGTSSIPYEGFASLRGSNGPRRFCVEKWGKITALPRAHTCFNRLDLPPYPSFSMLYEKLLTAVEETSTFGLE
pIC50: −log10 of the molar value.
Listed molecules paired with reported pIC50

| item smiles | obs value |
| --- | --- |
| NCc1cccc(CNc2ncnc3c(N4CCN(Cc5ccccc5)CC4)ncnc23)c1 | < 4.30 |

Now for a further molecule.
Fill in pIC50 for `Cc1c(C(=O)Nc2ccc(CN)cc2)ncnc1N1CCC(C#N)(c2ccccc2)CC1` tested with HECW2 (Homo sapiens). < 4.30

###

System: Ls174T cells
procedure text: Crystal violet growth assay of control and partially HUWE1-depleted Ls174T cells (IC50 shift)
Format: cell-based
condition set: Homo sapiens, 120 h; control Ls174T cells, crystal violet after five days; read-out: IC50 growth inhibition, ctr cells
measure: pIC50
Quick note: pIC50 means taking -log10 of the concentration in moles per liter.

Identify measured pIC50 corresponding to `Cc1c(C(=O)Nc2ccc(CN)cc2)ncnc1N1CCC(C#N)(c2ccccc2)CC1` 5.09

###

Listed compounds paired with reported IC50
target of assay: UniProt Q15751
Sequence (Q15751 4501-4848 limits assumed, species assumed): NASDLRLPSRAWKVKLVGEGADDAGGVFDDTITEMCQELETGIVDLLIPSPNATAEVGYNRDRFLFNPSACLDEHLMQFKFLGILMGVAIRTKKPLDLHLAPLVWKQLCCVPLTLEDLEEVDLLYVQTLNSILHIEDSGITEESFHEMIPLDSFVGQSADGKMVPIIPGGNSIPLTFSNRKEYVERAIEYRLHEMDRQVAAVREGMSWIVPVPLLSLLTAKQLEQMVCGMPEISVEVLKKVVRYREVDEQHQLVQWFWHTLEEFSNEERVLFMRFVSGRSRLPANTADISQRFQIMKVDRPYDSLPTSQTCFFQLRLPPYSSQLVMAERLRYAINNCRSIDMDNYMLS

| compound | target of assay | measure | obs value |
| --- | --- | --- | --- |
| NCc1cccc(CNc2ncnc3c(N4CCN(Cc5ccccc5)CC4)ncnc23)c1 [BI8626] | UniProt Q15751 | IC50 | > 50 µM |

Now for a further compound.
Fill in IC50 for Cc1c(C(=O)Nc2ccc(CN)cc2)ncnc1N1CCC(C#N)(c2ccccc2)CC1 [BI8622] tested with UniProt Q15751. > 50 µM
